# measurement_target: SARS-CoV-2 spike protein (SARS-CoV-2), P0DTC2
# measurement_parameters: remark: other sources report otherwise
reported_endpoint: koff (s⁻¹)
Reply with just the number (in s⁻¹).

Please fill in: koff reported for antibody 390 (antibody, V domains shown) VH: EVQLVESGGGLIQPGGSLRLSCAASGFTVSSNYMSWVRQAPGKGLEWVSIIYSGGSTYYADSVKGRFTISRDNSKNTLYLQMNSLRAEDSAVYSCATTMVRGLIISYYYGMDVWGQGTTVTVSS VL: QSALTQPASVSGSPGQSITISCTGTSSDVGGYNYVSWYQQHPGKAPKLMIYEVSNRPSGVSNRFSGSKSGNTASLTISGLQAEDEADYYCSSYTSSSTLVFGGGTKLTVL = 1.97e-05

Reported koff for antibody 444 (antibody, V domains shown) VH: QVQLVESGGGLVKPGGSLRLSCAASGFTFSDYYMSWIRQAPGKGLEWVSYISSSGSTIYYADSVKGRFTISRDNAKNSLYLQMNSLRAEDTAVYYCARERKVVVAATRNYYYYYGMDVWGQGTTVTVSS VL: SYELTQPPSVSVSPGQTARITCSGDALPKQYAYWYQQKPGQAPVLVIYKDSERPSGIPERFSGSSSGTTVTLTISGVQAEDEADYYCQSADSSTWVFGGGTKLTVL was 0.000717
